- testTarget: T1, macaca fascicularis (mf) PRLR.mmh (soluble monomeric monkey PRLR) (Macaca fascicularis)
- T1 construct: called soluble monomeric PRLR protein
- T1 chain: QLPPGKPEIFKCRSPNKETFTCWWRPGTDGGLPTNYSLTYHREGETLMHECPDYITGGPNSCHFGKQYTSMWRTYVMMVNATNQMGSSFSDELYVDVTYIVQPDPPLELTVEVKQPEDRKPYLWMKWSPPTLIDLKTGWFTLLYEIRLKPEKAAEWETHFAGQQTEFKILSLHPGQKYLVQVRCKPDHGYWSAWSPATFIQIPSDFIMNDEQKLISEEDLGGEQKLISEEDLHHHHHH
- assayOverview: SPR Biacore, 25 C, mAb capture
Exercise: for every item that follows, state its recorded koff.
Give bare numbers, in s⁻¹.

Solved entries (count: 3):
binder: H1H6790P (antibody, human IgG1, V domains shown, Human IgG1 Fc (H1H)) VH: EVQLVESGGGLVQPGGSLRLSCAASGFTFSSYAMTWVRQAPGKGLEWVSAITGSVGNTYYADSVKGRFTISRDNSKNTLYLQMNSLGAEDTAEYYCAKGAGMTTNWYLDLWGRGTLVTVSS VL: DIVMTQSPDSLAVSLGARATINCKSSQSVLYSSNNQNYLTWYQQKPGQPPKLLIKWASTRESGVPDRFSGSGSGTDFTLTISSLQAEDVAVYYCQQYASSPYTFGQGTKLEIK
readoutValue: 0.000793

binder: H1H6774P (antibody, human IgG1, V domains shown, Human IgG1 Fc (H1H)) VH: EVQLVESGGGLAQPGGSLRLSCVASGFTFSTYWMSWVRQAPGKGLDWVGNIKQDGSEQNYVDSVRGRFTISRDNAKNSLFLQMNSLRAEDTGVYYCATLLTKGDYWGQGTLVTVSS VL: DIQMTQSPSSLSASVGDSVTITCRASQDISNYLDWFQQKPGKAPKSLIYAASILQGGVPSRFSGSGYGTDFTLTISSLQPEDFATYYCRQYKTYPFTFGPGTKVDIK
readoutValue: 0.000875

binder: H1H6782P (antibody, human IgG1, V domains shown, Human IgG1 Fc (H1H)) VH: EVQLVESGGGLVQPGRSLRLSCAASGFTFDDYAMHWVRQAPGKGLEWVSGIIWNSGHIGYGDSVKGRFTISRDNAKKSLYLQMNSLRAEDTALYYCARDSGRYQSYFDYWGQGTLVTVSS VL: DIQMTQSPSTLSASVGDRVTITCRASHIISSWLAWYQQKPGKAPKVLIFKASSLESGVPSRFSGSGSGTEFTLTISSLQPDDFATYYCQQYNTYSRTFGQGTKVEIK
readoutValue: 0.000279

Take each entry in turn and give its koff.
1. H1H6966N (antibody, human IgG1, V domains shown, Tested with human IgG1 Fc (H1H); also called H2M6966N) VH: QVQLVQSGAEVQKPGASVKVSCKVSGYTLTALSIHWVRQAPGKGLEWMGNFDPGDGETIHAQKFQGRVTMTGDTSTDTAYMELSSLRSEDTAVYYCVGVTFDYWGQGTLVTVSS VL: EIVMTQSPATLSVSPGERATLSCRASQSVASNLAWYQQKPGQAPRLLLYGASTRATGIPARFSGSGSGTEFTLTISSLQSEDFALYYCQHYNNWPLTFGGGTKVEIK
2. H1H6797P (antibody, human IgG1, V domains shown, Human IgG1 Fc (H1H)) VH: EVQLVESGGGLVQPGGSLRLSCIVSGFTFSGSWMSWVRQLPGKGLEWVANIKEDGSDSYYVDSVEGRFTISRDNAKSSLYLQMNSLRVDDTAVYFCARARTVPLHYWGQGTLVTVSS VL: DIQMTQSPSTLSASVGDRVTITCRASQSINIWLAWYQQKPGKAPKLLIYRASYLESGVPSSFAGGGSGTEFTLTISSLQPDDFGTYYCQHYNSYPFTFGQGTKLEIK

1. 0.000325
2. 0.00209
